Taken from ChEMBL document CHEMBL4610092.

Test system: MGC-803
Assay remarks: Cytotoxicity against human MGC803 cells assessed as reduction in cell viability measured after 72 hrs by CCK8 assay
Format: functional, cell-based
Test settings: MGC-803, 72 h
Would you mind telling me the reported log10 IC50 of each entry?
Hello, just confirming the data are log10 of IC50 with units of µM.

Answer with the recorded log10 IC50 of CC(=O)O[C@H]1C(=O)[C@@]2(C)[C@H]([C@H](OC(=O)c3ccccc3)[C@]3(O)C[C@H](OC(=O)[C@H](O)[C@@H](NC(=O)c4ccccc4)c4ccccc4)C(C)=C1C3(C)C)[C@]1(OC(C)=O)CO[C@@H]1C[C@@H]2O only.
0.58

Answer with the recorded log10 IC50 of CC[C@H](C)/C=C/C1=CC2=C(Cl)C(=O)[C@@]3(C)OC(=O)C(C(=O)[C@H](C)[C@@H](C)O)=C3C2=CN1C/C=C(\C)CCC=C(C)C only.
-0.11

Answer with the recorded log10 IC50 of CCC(=O)C1=C2C3=CN(CC=C(C)C)C(/C=C/[C@@H](C)CC)=CC3=C(Cl)C(=O)[C@@]2(C)OC1=O only.
0.76

Answer with the recorded log10 IC50 of C/C=C(\C)C(=O)C1=C2C3=CN(C/C=C(\C)CCC=C(C)C)C(/C=C/[C@@H](C)CC)=CC3=C(Cl)C(=O)[C@@]2(C)OC1=O only.
-0.14

Answer with the recorded log10 IC50 of CC[C@H](C)/C=C/C1=CC2=C(Cl)C(=O)[C@@]3(C)OC(=O)C(C(=O)[C@@H](C)[C@@H](C)O)=C3C2=CN1C/C=C(\C)CCC=C(C)C only.
-0.34

Answer with the recorded log10 IC50 of CCC(=O)C1=C2C3=CN(C/C=C(\C)CCC=C(C)C)C(/C=C/[C@@H](C)CC)=CC3=C(Cl)C(=O)[C@@]2(C)OC1=O only.
0.34

Answer with the recorded log10 IC50 of CC[C@H](C)/C=C/C1=CC2=C(Cl)C(=O)[C@@]3(C)OC(=O)C(C(=O)[C@H](C)[C@@H](C)O)=C3C2=CN1CC=C(C)C only.
0.43

Answer with the recorded log10 IC50 of CC[C@H](C)/C=C/C1=CC2=C(Cl)C(=O)[C@@]3(C)OC(=O)C(C(=O)[C@@H](C)[C@@H](C)O)=C3C2=CN1CC=C(C)C only.
0.48

Answer with the recorded log10 IC50 of C/C=C(\C)C(=O)C1=C2C3=CN(CC=C(C)C)C(/C=C/[C@@H](C)CC)=CC3=C(Cl)C(=O)[C@@]2(C)OC1=O only.
0.83
